All values here come from patent US20250289827A1.

Test: Solubility data for Compound 1 drug substance
Assay type: physicochemical
Conditions: aqueous buffer; 50 mM pH 6.8 phosphate buffer solution, pH 6.76
Outcome Measure: solubility (µg/mL)
Answers are plain numbers, in µg/mL.

INPUT: Requested field: solubility. Item: CCN(C)S(=O)(=O)Nc1ccc(F)c(Oc2ccc3ncn([C@H]4COC5(CCN(C(=O)CC6(O)CCN(c7cc8c(cc7F)c(N7CCC(=O)NC7=O)nn8C)CC6)CC5)C4)c(=O)c3c2)c1C#N [Compound 1]
OUTPUT: 1530

---

Experiment: Approximate solubility at 25° C. and 50° C. (visual)
Assay type: physicochemical
Settings: MTBE, 50 °C, organic solvent or mixture, thermodynamic from solid, MTBE, 50° C.; read-out: Solubility
Outcome Measure: solubility

INPUT: Requested field: solubility. Item: CCN(C)S(=O)(=O)Nc1ccc(F)c(Oc2ccc3ncn([C@H]4COC5(CCN(C(=O)CC6(O)CCN(c7cc8c(cc7F)c(N7CCC(=O)NC7=O)nn8C)CC6)CC5)C4)c(=O)c3c2)c1C#N [Compound 1 Form A]
OUTPUT: < 10000 µg/mL

---

Experiment: Approximate solubility at 25° C. and 50° C. (visual)
Type: physicochemical
Conditions: isopropanol, 50 °C, organic solvent or mixture, thermodynamic from solid, Isopropanol, 50° C.; read-out: Solubility
Outcome Measure: solubility

INPUT: Requested field: solubility. Item: CCN(C)S(=O)(=O)Nc1ccc(F)c(Oc2ccc3ncn([C@H]4COC5(CCN(C(=O)CC6(O)CCN(c7cc8c(cc7F)c(N7CCC(=O)NC7=O)nn8C)CC6)CC5)C4)c(=O)c3c2)c1C#N [Compound 1 Form A]
OUTPUT: < 10000 µg/mL

---

Assay: Solubility in aqueous pH buffers and bio-relevant fluids at 37° C.
Format: physicochemical
Conditions: simulated gastric fluid, thermodynamic from solid; SGF, pH 2.0, 37° C.
Outcome Measure: solubility at 2 h (µg/mL)
Numbers only, in µg/mL.

INPUT: Requested field: solubility at 2 h. Item: CCN(C)S(=O)(=O)Nc1ccc(F)c(Oc2ccc3ncn([C@H]4COC5(CCN(C(=O)CC6(O)CCN(c7cc8c(cc7F)c(N7CCC(=O)NC7=O)nn8C)CC6)CC5)C4)c(=O)c3c2)c1C#N [Compound 1 Form B]
OUTPUT: 3.8

---

Experiment: Approximate solubility at 25° C. and 50° C. (visual)
Type: physicochemical
Settings: isopropyl acetate, 25 °C, organic solvent or mixture, thermodynamic from solid, Isopropyl acetate, 25° C.; read-out: Solubility
Outcome Measure: solubility

INPUT: Requested field: solubility. Item: CCN(C)S(=O)(=O)Nc1ccc(F)c(Oc2ccc3ncn([C@H]4COC5(CCN(C(=O)CC6(O)CCN(c7cc8c(cc7F)c(N7CCC(=O)NC7=O)nn8C)CC6)CC5)C4)c(=O)c3c2)c1C#N [Compound 1 Form A]
OUTPUT: < 5000 µg/mL

---

Assay: Approximate solubility at 25° C. and 50° C. (visual)
Type: physicochemical
Conditions: ethyl acetate, 25 °C, organic solvent or mixture, thermodynamic from solid, Ethyl acetate, 25° C.; read-out: Solubility
Outcome Measure: solubility

INPUT: Requested field: solubility. Item: CCN(C)S(=O)(=O)Nc1ccc(F)c(Oc2ccc3ncn([C@H]4COC5(CCN(C(=O)CC6(O)CCN(c7cc8c(cc7F)c(N7CCC(=O)NC7=O)nn8C)CC6)CC5)C4)c(=O)c3c2)c1C#N [Compound 1 Form A]
OUTPUT: < 5000 µg/mL
